tested on: SW-620; assay: Cytotoxicity against human SW620 cells after 24 hrs by MTT assay; format: functional, cell-based; settings: SW-620, 24 h
measurementKind: IC50

chemicalSmiles | measurementKind | assayValue
C=C(C)[C@@]12O[C@@]3(c4ccccc4)O[C@@H]1[C@@H]1[C@@H]4O[C@]4(CO)[C@@H](O)[C@]4(O)C(=O)C(C)=C[C@H]4[C@@]1(O3)[C@H](C)[C@H]2OC(=O)c1ccccc1 | IC50 | > 10 µM
C=C(C)[C@@]12O[C@@]3(/C=C/C=C/CCCCC)O[C@@H]1[C@@H]1[C@@H]4O[C@]4(CO)[C@@H](O)[C@]4(O)C(=O)C(C)=C[C@H]4[C@@]1(O3)[C@H](C)[C@H]2O | IC50 | > 10 µM
C=C(C)[C@@]1(O)[C@H](OC(=O)/C=C/C=C/CCCCC)[C@@H]2[C@H](O)[C@@](O)(CO)[C@@H](O)[C@]3(O)C(=O)C(C)=C[C@H]3[C@@]2(O)[C@H](C)[C@H]1OC(=O)c1ccccc1 | IC50 | > 10 µM
C=C(C)[C@@]12O[C@@]3(/C=C/C=C/CCCCC)O[C@@H]1[C@@H]1[C@@H]4O[C@]4(CO)[C@@H](O)[C@]4(O)C(=O)C(C)=C[C@H]4[C@@]1(O3)[C@H](C)[C@H]2OC(=O)c1ccccc1 | IC50 | 4.3 µM
